biological target: Fatty acid-binding protein, adipocyte (Homo sapiens)
Sequence (P15090 whole entry): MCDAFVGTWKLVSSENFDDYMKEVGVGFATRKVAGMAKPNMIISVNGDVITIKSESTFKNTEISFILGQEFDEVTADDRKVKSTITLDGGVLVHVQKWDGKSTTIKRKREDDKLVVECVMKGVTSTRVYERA
pKi: −log10 of the molar value.
The compounds listed here are annotated with their pKi.
property.measured: pKi

| entry.smiles | property.measured | inequality.symbol | result.number |
| --- | --- | --- | --- |
| O=C(O)Cc1cccc(OCc2ccccc2Cl)c1OCc1ccccc1Cl | pKi | = | 7.80 |
| O=C(O)C(=O)c1cccc(OCc2ccccc2Cl)c1OCc1ccccc1Cl | pKi | > | 8.70 |
| O=C(O)[C@@H](O)c1cccc(OCc2ccccc2Cl)c1OCc1ccccc1Cl | pKi | = | 8.60 |
